Target: cytoplasmic kinase domain of human IGF-1R (IGF-1R-GST) (Homo sapiens (Human))
Sequence (P08069 964-1367 limits assumed): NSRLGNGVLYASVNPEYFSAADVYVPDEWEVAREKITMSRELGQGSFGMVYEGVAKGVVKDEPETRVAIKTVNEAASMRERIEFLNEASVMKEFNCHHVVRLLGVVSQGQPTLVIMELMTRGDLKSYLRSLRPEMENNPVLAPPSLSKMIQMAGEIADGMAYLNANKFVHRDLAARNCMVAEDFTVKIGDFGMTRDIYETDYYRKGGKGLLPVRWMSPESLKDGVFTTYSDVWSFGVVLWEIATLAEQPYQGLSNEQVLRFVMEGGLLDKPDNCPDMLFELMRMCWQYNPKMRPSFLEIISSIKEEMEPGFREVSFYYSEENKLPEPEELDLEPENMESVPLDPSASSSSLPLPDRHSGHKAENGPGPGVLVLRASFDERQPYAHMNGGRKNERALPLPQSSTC
Test: Insulin-like growth factor-1 receptor (IGF-1R) kinase assay (DELFIA)
Type: biochemical
Settings: inhibition of IGF-1R-kinase activity, read-out: IGF1R IC50
readout: pIC50
Scale explanation: pIC50 corresponds to minus log10 of a concentration expressed in moles per litre.

CCN1CCN(c2ccc(Nc3ncc4c(n3)-c3c(nn(C)c3-c3ccc(-c5cnn(C)c5)cc3)CC4)c(OC)c2)CC1 | 10.05
CCn1ccc(Nc2ncc3c(n2)-c2c(nn(C)c2-c2ccc(-c4cnn(CCN5CCC(N(C)C)CC5)c4)cc2)CC3)n1 | 10.05
CC(=O)N1CCC(n2cc(Nc3ncc4c(n3)-c3c(nn(C)c3-c3ccc(-c5cnn(C(C)C)c5)cc3)CC4)cn2)CC1 | 9.77

Entry `COc1cc(C(=O)N[C@@H]2CCN(C)C[C@H]2OC)ccc1Nc1ncc2c(n1)-c1c(nn(C)c1-c1ccc(-c3cnn(C)c3)cc1)CC2` , pIC50 reported as 9.64
